targetUnderTest: Kappa-type opioid receptor (Homo sapiens, UniProt P41145)
Sequence (P41145 whole entry): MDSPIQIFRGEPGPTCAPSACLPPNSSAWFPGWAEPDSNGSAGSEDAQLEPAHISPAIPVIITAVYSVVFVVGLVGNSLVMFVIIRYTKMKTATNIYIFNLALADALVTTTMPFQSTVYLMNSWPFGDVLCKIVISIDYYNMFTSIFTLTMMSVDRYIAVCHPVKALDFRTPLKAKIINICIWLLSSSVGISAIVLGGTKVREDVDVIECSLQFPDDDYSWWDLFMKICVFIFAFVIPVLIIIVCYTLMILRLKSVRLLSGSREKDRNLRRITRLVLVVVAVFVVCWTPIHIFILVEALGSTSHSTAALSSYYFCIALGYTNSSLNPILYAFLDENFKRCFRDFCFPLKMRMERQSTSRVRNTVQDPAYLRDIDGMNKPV
testMethodNotes: GPCRScan assay: inhibition of KOR
Design: radioligand conc. used [nm] 0.6 – 1.2, parental cells stable HEK
measurementConditions: read-out: Ki
readoutType: Ki (nM)

CNCc1ccccc1-c1csc([C@H](C)Nc2nc(C)nc3cc(OC)c(OC)cc23)c1 841

----------
targetUnderTest: Sodium-dependent noradrenaline transporter (Homo sapiens)
Sequence (P23975 whole entry): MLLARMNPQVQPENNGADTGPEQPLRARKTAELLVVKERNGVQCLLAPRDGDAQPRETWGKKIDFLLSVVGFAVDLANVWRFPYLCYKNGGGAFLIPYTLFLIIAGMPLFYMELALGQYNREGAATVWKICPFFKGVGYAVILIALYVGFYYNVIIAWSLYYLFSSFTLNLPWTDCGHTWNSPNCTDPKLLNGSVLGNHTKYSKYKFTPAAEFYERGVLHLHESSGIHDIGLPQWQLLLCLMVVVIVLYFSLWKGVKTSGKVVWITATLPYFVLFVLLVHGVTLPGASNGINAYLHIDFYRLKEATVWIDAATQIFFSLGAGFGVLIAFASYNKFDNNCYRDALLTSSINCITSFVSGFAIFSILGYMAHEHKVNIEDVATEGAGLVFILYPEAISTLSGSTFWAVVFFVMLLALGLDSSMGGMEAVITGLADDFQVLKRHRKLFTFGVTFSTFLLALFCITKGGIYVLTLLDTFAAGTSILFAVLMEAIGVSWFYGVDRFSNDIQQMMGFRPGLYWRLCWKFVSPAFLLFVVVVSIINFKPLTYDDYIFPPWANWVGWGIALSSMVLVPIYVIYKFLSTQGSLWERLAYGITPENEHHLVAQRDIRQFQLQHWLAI
testMethodNotes: GPCRScan assay: inhibition of NET
Design: radioligand conc. used [nm] 1.3 – 5.0, parental cells stable HEK
measurementConditions: read-out: Ki
pKi: −log10 of the molar value.
Each entry below carries its recorded pKi.

compound	pKi
CNCc1ccccc1-c1csc([C@@H](C)Nc2nc(C)nc3cc(OC)c(OC)cc23)c1 [BAY-293]	6.01
CNCc1ccccc1-c1csc([C@H](C)Nc2nc(C)nc3cc(OC)c(OC)cc23)c1 [BAY-294]	5.68
